# test_details: Average membrane charge density calculation for plasmid DNA-gemini surfactant-DOPE nanoparticles
# Assay type: physicochemical
# cond: calculated from head group areas
Measured membrane charge density σM accompanies every entry in the list below.

compound: CCCCCCCCCCCC[N+](C)(C)CCN(C)CC[N+](C)(C)CCCCCCCCCCCC [12-5N-12]
reading: 1.05 ×10^−2 e/Å^2
--
compound: CCCCCCCCCCCC[N+](C)(C)CCCN(C)CCC[N+](C)(C)CCCCCCCCCCCC.[Br-].[Br-] [12-7N-12]
reading: 0.748 ×10^−2 e/Å^2
--
compound: CCCCCCCCCCCC[N+](C)(C)CCN(C)CCN(C)CC[N+](C)(C)CCCCCCCCCCCC [12-8N-12]
reading: 0.780 ×10^−2 e/Å^2
--
compound: CCCCCCCCCCCC[N+](C)(C)CCCNCCC[N+](C)(C)CCCCCCCCCCCC.[Br-].[Br-] [12-7NH-12]
reading: 0.920 ×10^−2 e/Å^2

Please find the next compound below.
I am curious: what membrane charge density σM value has been reported for CCCCCCCCCCCC[N+](C)(C)CC[N+](C)(C)CCCCCCCCCCCC.[Br-].[Br-] [12-2-12, reference compound] ?
1.43 ×10^−2 e/Å^2

* * *

# test_details: Small angle X-ray scattering (SAXS) of plasmid DNA-gemini surfactant-DOPE complexes
# Format: physicochemical
# cond: plasmid DNA-gemini surfactant-DOPE complexes
measure: d-spacing of main scattering peak (Å)

molecule: CCCCCCCCCCCC[N+](C)(C)CCCNCCC[N+](C)(C)CCCCCCCCCCCC.[Br-].[Br-]
unit_descriptor: Å
d-spacing of main scattering peak: 59.4
--
molecule: CCCCCCCCCCCC[N+](C)(C)CCN(C)CC[N+](C)(C)CCCCCCCCCCCC
unit_descriptor: Å
d-spacing of main scattering peak: 58.6
--
molecule: CCCCCCCCCCCC[N+](C)(C)CC[N+](C)(C)CCCCCCCCCCCC.[Br-].[Br-] [12-2-12, reference compound]
unit_descriptor: Å
d-spacing of main scattering peak: 61.7
--
molecule: CCCCCCCCCCCC[N+](C)(C)CCN(C)CCN(C)CC[N+](C)(C)CCCCCCCCCCCC
unit_descriptor: Å
d-spacing of main scattering peak: 59.6
--
molecule: CCCCCCCCCCCC[N+](C)(C)CCCN(C)CCC[N+](C)(C)CCCCCCCCCCCC.[Br-].[Br-]
unit_descriptor: Å
d-spacing of main scattering peak: 59.6

* * *

# System: cultured cells
# test_details: Viability of cells following transfection
# Type: cell-based
# cond: after transfection with plasmid DNA-gemini surfactant-DOPE or Lipofectamine Plus; relative to controls (no treatment or plasmid DNA alone)
measure: cell viability

record_smiles: CCCCCCCCCCCC[N+](C)(C)CCCN(C)CCC[N+](C)(C)CCCCCCCCCCCC.[Br-].[Br-]
reading: around 80%
//
record_smiles: CCCCCCCCCCCC[N+](C)(C)CCN(C)CC[N+](C)(C)CCCCCCCCCCCC
reading: around 80%
//
record_smiles: CCCCCCCCCCCC[N+](C)(C)CCN(C)CCN(C)CC[N+](C)(C)CCCCCCCCCCCC
reading: around 80%
